# System: Mycobacterium tuberculosis
# TEST NAME: Cornell M. t heat shock assay; note: in the data most compounds retested in dose-response had high values
# Format: functional, organism-based
# Parameters: dose or concentration left out as unconfirmed
About 950 (1.4%) of roughly 69,000 compounds showed an effect of 50% or more. The entries come from a sample that favours strong results as a whole.
MEASURED QUANTITY: Percent Effect (%)
Just the number in %, nothing appended.

stdin: Name the recorded Percent Effect for Cc1nnc2n1CCN(Cc1ncc(-c3ccc(Cl)cc3)o1)C2 .
stdout: -15.98

stdin: Percent Effect for O=C(O)C(F)(F)F.O=C(O)C(F)(F)F.c1csc(CN2CCC3(CC2)CCN(CC2CC2)CC3)n1 ?
stdout: -18.7

stdin: Fill in the blank: the reported Percent Effect of CN(C)C(=O)COCC1CN(Cc2ccco2)Cc2ncn(C)c21.O=C(O)C(F)(F)F.O=C(O)C(F)(F)F (stereo not given) is ____.
stdout: 31.48

stdin: What measured Percent Effect goes with Cc1cccc(NC(=O)N2CCCn3cnc(CN(C)C(C)C)c3C2)c1.O=C(O)C(F)(F)F ?
stdout: -43.51

stdin: GET /values?readout=Percent Effect&item= Cc1ccc(CN2CC3(CCN(C(=O)c4cccnc4)C3)C2)o1.O=C(O)C(F)(F)F.O=C(O)C(F)(F)F
stdout: 25.41

stdin: I have this compound here, CC(C)n1c2ccccc2c2c1cc(C(=O)N(C)C)n2C(=O)N(C)C , and I need its recorded Percent Effect.
stdout: 11.26

stdin: I have this compound here, CCN(CC)C(=O)CSc1nnc(CCNC(=O)OC(C)(C)C)o1 , and I need its recorded Percent Effect.
stdout: 3.451

stdin: Recorded Percent Effect for O=C(O)C(F)(F)F.c1cncc(-c2ccc3c(c2)C2(CC3)CCN(c3nncs3)CC2)c1 , please?
stdout: 12.31

stdin: I am curious: what Percent Effect value has been reported for Cn1nnc2c1C(COCc1ccccn1)CN(Cc1ccoc1)C2.O=C(O)C(F)(F)F.O=C(O)C(F)(F)F (stereo not given) ?
stdout: -16.51

stdin: Entry O=C(O)C(F)(F)F.O=C(O)C(F)(F)F.O=C(c1ccnnc1)N1C[C@@H]2OCCN(CCN3CCCC3)[C@@H]2C1 has what Percent Effect?
stdout: -5.03

stdin: // returns reported Percent Effect for input COC(=O)CSc1nnc(CCNC(=O)OC(C)(C)C)o1
stdout: 12.63

stdin: Which Percent Effect value is on record for Cl.c1cncc(CNCc2cccs2)c1 ?
stdout: 5.045

stdin: Which measured Percent Effect value corresponds to Cc1nnc2n1CCN(Cc1ncc(-c3ccccc3)o1)C2 ?
stdout: -5.111

stdin: Data request, read-out Percent Effect, for CCc1nnc2n1CCN(Cc1ncc(-c3ccc(Cl)cc3)o1)C2
stdout: -1.022

stdin: Consider the compound Cc1nc(CN2CCOCC3(CCN(c4cnccn4)CC3)C2)cs1.O=C(O)C(F)(F)F and give its measured Percent Effect.
stdout: -3.315

stdin: Give the measured Percent Effect of CC(C)C(=O)N(C)Cc1nc(N2CCCC2)ncc1-c1ccncc1.Cl .
stdout: 19.59

stdin: Please give the measured Percent Effect for this compound: Cc1noc(C)c1CN1CC[C@H]2OCC[C@@]2(C(=O)N(C)C)C1.O=C(O)C(F)(F)F
stdout: -9.212

stdin: Would you mind telling me what Percent Effect value was observed for CN(C)CC(=O)N1CCC2(CCc3cc(-c4cccnc4)ccc32)CC1.O=C(O)C(F)(F)F.O=C(O)C(F)(F)F ?
stdout: 53.15

stdin: For Cc1n[nH]cc1CNC(C(=O)N1CCCCC1)c1ccccc1 (stereo not given) , what is its reported Percent Effect?
stdout: -8.652

stdin: # get_value(readout='Percent Effect', item= CO[C@H]1CN(C(=O)c2ccccn2)[C@@H]2CCCO[C@H]12.O=C(O)C(F)(F)F )
stdout: 0.07759
